The reported numbers originate from patent US10004732B2.

target: UniProt:P48736; test: Cellular U937 AKT assay K1 (MSD); assay type: cell-based; settings: U937 cells, K1 format; read-out: Assay K1 PI3Kγ IC50
Sequence (P48736 whole entry): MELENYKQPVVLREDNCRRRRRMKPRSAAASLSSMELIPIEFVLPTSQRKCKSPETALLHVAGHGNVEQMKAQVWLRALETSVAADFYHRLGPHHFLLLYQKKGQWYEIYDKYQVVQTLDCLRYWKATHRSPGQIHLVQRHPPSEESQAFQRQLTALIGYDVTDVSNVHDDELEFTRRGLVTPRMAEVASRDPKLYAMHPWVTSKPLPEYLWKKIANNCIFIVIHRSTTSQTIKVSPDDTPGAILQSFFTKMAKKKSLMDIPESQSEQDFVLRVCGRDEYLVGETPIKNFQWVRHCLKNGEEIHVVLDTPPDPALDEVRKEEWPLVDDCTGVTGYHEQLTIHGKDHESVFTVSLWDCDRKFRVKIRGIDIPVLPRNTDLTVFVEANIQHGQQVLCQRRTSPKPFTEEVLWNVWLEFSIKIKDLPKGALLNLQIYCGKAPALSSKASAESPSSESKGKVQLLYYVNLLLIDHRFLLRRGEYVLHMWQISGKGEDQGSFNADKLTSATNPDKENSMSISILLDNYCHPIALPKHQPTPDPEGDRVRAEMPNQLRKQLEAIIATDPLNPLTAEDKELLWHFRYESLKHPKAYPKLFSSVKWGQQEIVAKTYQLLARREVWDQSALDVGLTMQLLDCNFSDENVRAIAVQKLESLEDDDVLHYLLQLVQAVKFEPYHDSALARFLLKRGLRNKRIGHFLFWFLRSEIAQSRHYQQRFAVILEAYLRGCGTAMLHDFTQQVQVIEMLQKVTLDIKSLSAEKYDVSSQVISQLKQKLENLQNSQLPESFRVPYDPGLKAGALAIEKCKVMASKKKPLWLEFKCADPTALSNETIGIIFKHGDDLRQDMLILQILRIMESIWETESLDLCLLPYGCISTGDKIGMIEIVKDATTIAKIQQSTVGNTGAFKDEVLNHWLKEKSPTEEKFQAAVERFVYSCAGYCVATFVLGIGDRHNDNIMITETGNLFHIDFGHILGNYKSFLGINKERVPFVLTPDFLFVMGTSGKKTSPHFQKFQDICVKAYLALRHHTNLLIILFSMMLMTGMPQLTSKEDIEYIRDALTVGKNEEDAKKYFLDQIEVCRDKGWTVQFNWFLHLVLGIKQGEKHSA
pIC50: −log10 of the molar value.
REPORTED_ENDPOINT: pIC50

COMPOUND | RECORDED_RESULT
Cc1ccc(S(=O)(=O)NCC[C@@H](O)C(F)(F)F)cc1-c1cnc(N)c(-c2cn(C)nc2C)n1 (single isomer, unassigned) [Example 52b] | 7.22

I. Cc1ncc(-c2nc(-c3cc(S(=O)(=O)NC[C@H]4C[C@H](O)C4)ccc3C)cnc2N)s1 [Example 20b]
II. Cc1ccc(S(=O)(=O)NCCC(C)(C)O)cc1-c1cnc(N)c(-n2cnc(C3CC3)n2)n1
III. Cc1ccc(S(=O)(=O)NCC2(O)COC2)cc1-c1cnc(N)c(-n2cncn2)n1
Query: hey, can you rank those compounds up there by pIC50? biggest number first please The labels, placed in the requested order, form the answer.
Result: I, II, III
(I: 7.85, II: 7.27, III: 6.58)

---

molecular target: UniProtKB Q9UBF8; test: Kinase Glo Luminescent Kinase Assay (Kglo), assay D; type: biochemical; conditions: read-out: Assay D PI4Kβ IC50
pIC50: −log10 of the molar value. Counter-ions that a name gives are not always drawn.
REPORTED_ENDPOINT: pIC50

MOLECULE | pIC50
Cc1ccc(S(=O)(=O)NC[C@@H]2CCOC2)cc1-c1cnc(N)c(-n2cncn2)n1 [Example 127.26] | 5.28

P. Cc1ncc(-c2nc(-c3cc(S(=O)(=O)N4CCNC(C(F)(F)F)C4)ccc3C)cnc2N)s1 (stereo not shown) [Example 118]
Q. Cc1ccc(S(=O)(=O)NCCN)cc1-c1cnc(N)c(-n2cncn2)n1 [Example 33, trifluoroacetic acid salt]
R. Cc1ccc(S(=O)(=O)NC2CCC2)cc1-c1cnc(N)c(-n2cncn2)n1 [Example 127.54]
Query: hey, can you rank those molecules up there by pIC50? biggest number first please Return the labels ranked in the requested order, please.
Result: Q, R, P
(Q: 6.04, R: 5.59, P: 5.33)

---

target: PI 4-kinase beta (Homo sapiens, UniProt Q9UBF8); experiment: Kinase Glo Luminescent Kinase Assay (Kglo), assay D; assay type: biochemical; details: read-out: Assay D PI4Kβ IC50
Sequence (Q9UBF8 whole entry): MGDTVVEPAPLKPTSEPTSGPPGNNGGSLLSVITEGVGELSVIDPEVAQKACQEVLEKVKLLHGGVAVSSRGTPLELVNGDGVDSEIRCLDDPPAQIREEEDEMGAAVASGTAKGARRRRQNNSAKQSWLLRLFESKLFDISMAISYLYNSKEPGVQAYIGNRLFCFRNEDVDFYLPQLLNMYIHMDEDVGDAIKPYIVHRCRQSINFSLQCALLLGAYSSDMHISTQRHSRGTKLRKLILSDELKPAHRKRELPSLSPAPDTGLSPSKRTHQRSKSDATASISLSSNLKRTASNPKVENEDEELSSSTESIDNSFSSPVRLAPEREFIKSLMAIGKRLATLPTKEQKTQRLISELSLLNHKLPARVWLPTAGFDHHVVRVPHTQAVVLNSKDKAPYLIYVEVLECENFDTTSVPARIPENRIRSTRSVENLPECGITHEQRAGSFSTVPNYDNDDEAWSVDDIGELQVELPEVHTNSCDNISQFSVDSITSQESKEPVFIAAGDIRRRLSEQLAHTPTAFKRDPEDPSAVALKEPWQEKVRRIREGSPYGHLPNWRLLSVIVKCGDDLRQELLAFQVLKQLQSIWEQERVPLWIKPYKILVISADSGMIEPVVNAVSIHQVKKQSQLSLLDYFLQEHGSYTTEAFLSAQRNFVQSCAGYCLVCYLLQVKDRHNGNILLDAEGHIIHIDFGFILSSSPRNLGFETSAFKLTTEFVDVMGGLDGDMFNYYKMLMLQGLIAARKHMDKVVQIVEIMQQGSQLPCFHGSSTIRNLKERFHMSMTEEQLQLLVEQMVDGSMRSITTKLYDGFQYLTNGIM
pIC50: −log10 of the molar value.
REPORTED_ENDPOINT: pIC50

1. Cc1ncc(-c2nc(-c3cc(S(=O)(=O)NCCCO)c(F)cc3C)cnc2N)s1
2. Cc1ccc(S(=O)(=O)NCC(C)(C)O)cc1-c1cnc(N)c(-n2cc(C)c(C)n2)n1
Query: // returns 1 or 2 , whichever has the lower pIC50 Returns: label corresponding to the selected item.
Result: 2

---

assay: Microsomal clearance assay (M); conditions: intrinsic clearance in rat liver microsomes
REPORTED_ENDPOINT: Assay M RLM CI(int) (µL/min/mg)

Solved cases below.
COMPOUND | RECORDED_RESULT
Cc1cc(-c2nc(-c3cc(S(=O)(=O)N4CCC(N)CC4)ccc3C)cnc2N)ccn1 [Example 129.41] | 13
CCc1noc(-c2nc(-c3cc(S(=O)(=O)NC4CNC4)ccc3C)cnc2N)n1 [Example 137] | 28
Cc1ccc(S(=O)(=O)NCC2(O)CCOCC2)cc1-c1cnc(N)c(-n2cncn2)n1 [Example 32] | 28
Cc1ccc(S(=O)(=O)NCC(C)(C)CO)cc1-c1cnc(N)c(-c2cc(C3CC3)no2)n1 [Example 99] | 74

a. Cc1ccc(S(=O)(=O)NCC2(CO)CCCC2)cc1-c1cnc(N)c(-n2cncn2)n1 [Example 127.25]
b. Cc1ccc(S(=O)(=O)NCCC(C)(C)O)cc1-c1cnc(N)c(-c2cnn(CCN3CCOCC3)c2)n1 [Example 119.41]
Query: Between these two entries, a and b , state which has the higher Assay M RLM CI(int). Response format: the label of the selected entry.
Result: a
